assay: Inhibition of Saccharomyces cerevisiae alpha-glucosidase using p-nitrophenyl alpha-D-glucoside as substrate incubated for 0.5 hrs followed by substrate addition and measured after 1 hr by colorimetric assay
OBSERVED_PROPERTY: IC50 (µM)
Value expressed in µM; do not type the unit.

// sample "O=C(/C=C/c1ccc(O)cc1)NCCc1ccc(O)cc1" , its IC50 was 4.5

----------
Reported IC50 is given for each of the following molecules.
test: Inhibition of Saccharomyces cerevisiae alpha-glucosidase using p-nitrophenyl alpha-D-glucoside as substrate incubated for 0.5 hrs followed by substrate addition and measured after 1 hr by colorimetric assay
Value expressed in µM; do not type the unit.

MOLECULE	IC50, µM
COc1ccc([C@@H]2CC(=O)c3c(O)cc(O)c(O)c3O2)cc1	256

// sample COc1cc(/C=C/C(=O)NCCc2ccc(O)cc2)ccc1O [N-TRANS-FERULOYL TYRAMINE] , its IC50 was 24.7

// sample C[C@H]1O[C@H](O[C@H]2[C@H](O)[C@@H](O)[C@@H](O[C@H]3[C@H](O)[C@@H](O)C(O)O[C@@H]3CO)O[C@@H]2CO)[C@H](O)[C@@H](O)[C@@H]1N[C@H]1C=C(CO)[C@@H](O)[C@H](O)[C@H]1O (stereo partly drawn) , its IC50 was 73.7
